tested on: MDA-MB-435 melanoma; experiment: NCI-60 one-dose screen, 48 h (100 = growth as untreated, 0 = no growth, -100 = all killed); details: 10 µM unless noted
About 83,000 compounds went through this panel and 20% of them were active in at least one assay; those are over-represented in the sample as a whole. Active and inactive are the calls of the source. The calls were made as follows: active = growth percent below 10; inactive = the rest.
readoutLabel: growth

A selection of reference data follows.
1) Cc1ccc2cnc(N)c(C#Cc3cc(C(=O)Nc4ccc(CN5CCN(C)CC5)c(C(F)(F)F)c4)cnc3C)c2c1 = -69.3% (active)
2) O=S(=O)(N=C1C(Cl)=C(Cl)C(=NS(=O)(=O)c2ccccc2)C(Cl)=C1Cl)c1ccccc1 = 101% (inactive)

Quick check: growth of COc1cc2c(c(OC)c1OC)CCC(c1cccc(C(=O)Nc3ccc(Br)cc3)c1)O2 (stereo not given) ?
81.9% (inactive)

Quick check: growth of CC1=C2[C@@H](CC1)[C@]1(C)O[C@@](C3CCNCC3)(C[C@H]1OC(=O)CO)[C@H]2OC(=O)/C=C/c1ccccc1 ?
88.6% (inactive)

Quick check: growth of CNC(=O)Nc1ccc(-c2ccc3ncnc(Nc4cccc(Cl)c4)c3c2)cc1 ?
64% (inactive)

Quick check: growth of C[C@H]1[C@H](C)CC[C@]2(C(=O)NCCNCCN)CC[C@]3(C)C(=CC[C@@H]4[C@@]5(C)CCC(=O)C(C)(C)[C@@H]5CC[C@]43C)[C@H]12 ?
-75.7% (active)

Quick check: growth of COc1ccc(-c2cc(-c3cc(OC)ccc3OC)nc(SCC(C)=O)c2C#N)cc1 ?
36.1% (inactive)

###

tested on: NCI-H226 lung; experiment: NCI-60 one-dose screen, 48 h (100 = growth as untreated, 0 = no growth, -100 = all killed); settings: 10 µM unless noted
About 83,000 compounds went through this panel and 20% of them were active in at least one assay; those are over-represented in the sample as a whole.
hey, just use Y if measured growth is less than 80%, otherwise N

Use these answered entries as a reference point.
1) CCN(CC)CCOc1ccc2c(-c3ccccc3)c(-c3ccc(OC)cc3)c(=O)oc2c1 = N
2) N=C(N)c1ccc(-c2ccc(-c3cc(Cl)cc(Cl)c3)s2)s1 = N
3) Cc1nn(C)c2ncnc(N/N=C/c3cccc(O)c3O)c12 = Y

Answer whether the compound O=C(c1cccc(N2CCOCC2)n1)c1c[nH]c2ccccc12 has growth strictly less than 80%
N

Answer whether the compound CCN(CC)C(=O)C1=C(C)NC(=O)NC1c1ccc2c(c1)OCO2 (stereo not given) has growth strictly less than 80%
N

Answer whether the compound COc1ccc2c(c1)CC[C@@H]1[C@@H]2CC[C@]2(C)C3C(=CC(COC(C)=O)C4C(=O)N(c5ccc(Cl)cc5)C(=O)C43)C[C@@H]12 (stereo not given in full) has growth strictly less than 80%
N

Answer whether the compound Fc1cc2[nH]ncc2c2c3c(c(-c4cn[nH]c4C(F)(F)F)nc12)CCCC3 has growth strictly less than 80%
Y

Answer whether the compound Cc1cc(C(=O)CCCC(=O)c2cc(C)c(O)c(C)c2)cc(C)c1O has growth strictly less than 80%
N

###

system: SNB-75 CNS; experiment: NCI-60 one-dose screen, 48 h; settings: 10 µM unless noted
The panel holds about 83,000 compounds, 20% with a hit somewhere; the sample as a whole holds those more often. The source made the active and inactive calls. The calls were made as follows: active = growth percent below 10; inactive = the rest.
Respond only with the outcome that fits, drawn from active, inactive

Use these answered entries as a reference point.
1) C=CC(CC(c1ccccc1)(c1ccccc1)c1ccccc1)N(CC)CC (configuration not stated) = inactive
2) N#CC1=C(N)Oc2c(sc3c(F)cccc23)C1c1ccc([N+](=O)[O-])cc1 (configuration not stated) = active
3) COc1ccc2c(c1)C(C)Cc1c(ncnc1-n1cnc3cc(C)ccc31)N2C (configuration not stated) = inactive
4) CN1CCOCCN(C)Cc2ccc3ccc(cc3c2)CN(C)CCOCCN(C)Cc2ccc3ccc(cc3c2)C1 = inactive
5) CCCCCCCCCCOC(=O)c1nn(C(C)=O)c2cc(C)c(C)cc12 = inactive
6) O=C(Nc1nc(Cl)nc(Nc2ccc(N3CCOCC3=O)cc2)n1)c1ccc(Cl)s1 = inactive
7) Cc1ccc(S(=O)(=O)OCC#CCOS(=O)(=O)c2ccc(C)cc2)cc1 = active
8) O=C(N/N=C/c1ccc(Cl)cc1)c1ccc(NC(=O)c2ccccn2)cc1 = active
9) Cc1c2ncccc2nc2[nH]c3ccc(OCCN(C)C)cc3c12 = inactive
10) CN(C)c1ccc(/C=N\NC(=O)c2ccc3nc(-c4ccc(Cl)cc4)[nH]c3c2)cc1 = inactive

Assay result, entry CCOC(=O)c1ccc[nH]1 — outcome?
inactive

Assay result, entry Nc1ccc(Br)cc1C(F)(F)F — outcome?
inactive

###

test system: NCI-H522 lung; assay: NCI-60 one-dose screen, 48 h; conditions: 10 µM unless noted
Compounds without any hit were thinned out: in the full panel of roughly 83,000, 20% have a hit. Activity calls are given as the source filed them. The calls were made as follows: active = growth percent below 10; inactive = the rest.
Respond only with the outcome that fits, drawn from 1 for active, 0 for inactive

1) O=CN1N=C(c2cccc(Nc3ccnc4cc(Cl)ccc34)c2)CC1c1ccc(Cl)cc1 (centres undefined) = 1
2) O=C(/C=C/c1ccccc1Cl)c1cccc(OCCCCOc2cccc(C(=O)/C=C/c3ccccc3Cl)c2)c1 = 0

Assay result, entry CCOC(=O)c1c(C)nc2c(c1N)C(=O)C(=O)N2Cc1ccc(OC)cc1 — outcome?
0

Assay result, entry CN(C)/C(N)=N/N=C(\c1ccccc1)c1ccccn1 — outcome?
0

Assay result, entry O=C(/C=C/c1ccccc1)c1ccc(-n2cc(CN3CCN(c4cc5c(cc4F)c(=O)c(C(=O)O)cn5C4CC4)CC3)nn2)cc1 — outcome?
0

Assay result, entry O=C(Oc1ccc2c(c1)sc1nc(-c3ccccc3)[nH]c(=O)c12)C(F)(F)F — outcome?
0

Assay result, entry CCN(CC)C(=O)CC1=C(C)/C(=C/c2[nH]c(-c3ccc[nH]3)cc2OC)N=C1C — outcome?
0

Assay result, entry O=C(Nc1cccnc1Nc1ccc(Cl)cc1)c1cn(Cc2cccc(Oc3ccccc3)c2)nn1 — outcome?
0

Assay result, entry C=C1CC[C@@H]2C(C)(C)[C@H](O)CC[C@@]2(C)[C@@H]1COc1ccc2ccc(=O)oc2c1 — outcome?
0

###

Recorded growth values for a group of molecules are listed next.
system: SNB-19 CNS; experiment: NCI-60 one-dose screen, 48 h (100 = growth as untreated, 0 = no growth, -100 = all killed); conditions: 10 µM unless noted
This is part of a sample that, as a whole, favours compounds with a hit. Of some 83,000 tested, about 20% had one in any assay.
Value expressed in %; do not type the unit.

Quick check: growth of O=C(O)c1cn(C2CC2)c2cc(N3CCN(C(=O)N4CCOCC4)CC3)c(F)cc2c1=O ?
105

Quick check: growth of Cc1ccc2nc(-c3ccc(C(=O)N/N=C/c4ccc([N+](=O)[O-])cc4)cc3)[nH]c2c1 ?
104

###

test system: SF-295 CNS; experiment: NCI-60 one-dose screen, 48 h (100 = growth as untreated, 0 = no growth, -100 = all killed); conditions: 10 µM unless noted
Compounds without any hit were thinned out: in the full panel of roughly 83,000, 20% have a hit. The source made the active and inactive calls. How the source made its calls: active means growth percent below 10; inactive means the rest.
readoutLabel: growth

1. ClCCn1cnc2c(SCc3ccccc3)ncnc21 = 37.6% (inactive)
2. O=[N+]([O-])c1ccccc1Sc1ccccc1[N+](=O)[O-] = 101% (inactive)
3. COc1ccc(C(O)c2cc3c(N)c(C(=O)Nc4cccc5ccccc45)sc3nc2C)cc1 (stereo not given) = 12.9% (inactive)
4. c1ccc(-c2nc3ccccc3[nH]2)c(OCCCCCOc2ccccc2-c2nc3ccccc3[nH]2)c1 = 87.3% (inactive)

Note: attention shifts to another entry.
I'm curious: which growth was measured for c1ccc(Cn2cc3c(c2-c2ccccc2)CCc2cnoc2-3)cc1 tested on SF-295 CNS?
60.4% (inactive)

###

test system: UACC-257 melanoma; test: NCI-60 one-dose screen, 48 h; details: 10 µM unless noted
This is part of a sample that, as a whole, favours compounds with a hit. Of some 83,000 tested, about 20% had one in any assay. Activity calls are given as the source filed them. Rule for the calls: active = growth percent below 10; inactive = the rest.
Respond only with the outcome that fits, drawn from 1.0 (active), 0.0 (inactive)

Use these answered entries as a reference point.
1. ClCCn1cnc2c(SCc3ccccc3)ncnc21 = 0.0
2. Cc1ccc2c(/C=C/C(=O)c3cc(CN4CCOCC4)c(O)c4nc(C)ccc34)cc(CN3CCOCC3)c(O)c2n1 = 1.0
3. Nc1ncccc1O = 0.0
4. O=C(NCCNC(c1ccccc1)C(NCCNC(=O)c1ccccc1)c1ccccc1)c1ccccc1 (stereo not given) = 0.0
5. Cn1cc(-c2nc3c(F)cc4[nH]ncc4c3c3c2CCCC3)c(C(F)(F)F)n1 = 0.0
6. Cc1cccc(-c2nc(C(C)C)sc2-c2ccnc(NCCCNS(=O)(=O)c3ccc(Cl)cc3)c2)c1 = 0.0
7. N#Cc1c(-c2ccccc2)nc2c(c(-c3ccccc3)nn2-c2ccccc2)c1-c1ccc(N2CCCCC2)cc1 = 0.0
8. COc1c2c(cc3c1C(=O)N[C@@H]1[C@@H](O)[C@@H](O)[C@H](O)C[C@@H]31)OCCO2 = 0.0

Assay result, entry CSc1ccc2c3c(n(C[C@H](O)CO)c(=O)c2c1)-c1ccccc1C3=O — outcome?
0.0

Assay result, entry CCOC(=O)c1cnn(CC(C)O)c1NC(=O)NCc1ccccc1C(F)(F)F (stereo not given) — outcome?
0.0

Source of measurements: PubChem BioAssay (NCI)
